assay: Cytotoxic Profiling in NIH 3T3 Cell Line of Diverse Libraries Using Quantitative High-Throughput Screening; conditions: NIH 3T3 viability, CellTiter-Glo ATP luminescence, 48-72 h; series mostly up to 96.7 µM; also: nearly all actives have a fitted effect of over 55% in size
About 4,000 (4.3%) of roughly 94,000 compounds were called active. Another 29% or so got no clear call; they are omitted. Calls follow the shape of the dose curve; as a rule, active = well fitted inhibition curve with a large enough effect; inconclusive = small, poorly fitted or top-dose-only effect; inactive = no such curve, though single readings can be large or run the other way. The sample holds actives, similar compounds and a random draw of the others, so the mix is not that of the screen.
Reply using exactly one outcome from t (active), f (inactive)

Dear colleague, could you share the recorded outcome for COc1ccc(NC(=O)N2CCCC(Cc3noc(-c4ccccc4)n3)C2)cc1 (configuration not stated) when you have a moment?
t

Dear colleague, could you share the recorded outcome for CC/C=C/CC(=O)N1CCC2(CCN(Cc3cccnc3)CC2)C(CO)C1 (configuration not stated) when you have a moment?
f

Dear colleague, could you share the recorded outcome for CC(=O)NC1CC2(CCN(C(=O)CCC(=O)O)CC2)c2ccccc21 (configuration not stated) when you have a moment?
f

Dear colleague, could you share the recorded outcome for CC(C)c1ccccc1NC(=O)Cn1cccc1-c1nc(-c2ccccc2)no1 when you have a moment?
f

Dear colleague, could you share the recorded outcome for COc1ccc(-c2cccc(C(=O)N3CCN(C(=O)Cc4cccc(Cl)c4)CC3)c2)nn1 when you have a moment?
f

Dear colleague, could you share the recorded outcome for Cn1cnc(S(=O)(=O)N[C@H]2CCN(C(=O)CSCC(=O)O)[C@H](C(=O)N[C@H](Cc3ccccc3)C(N)=O)C2)c1 when you have a moment?
f

Dear colleague, could you share the recorded outcome for Cc1nn2c(c1-c1ccnn1C(C)C)N(CC1CCOCC1)CCC2 when you have a moment?
t

Dear colleague, could you share the recorded outcome for Cc1oc(-c2cccc(Oc3ccccc3)c2)nc1CN1CCOC(CCN)C1 (configuration not stated) when you have a moment?
t

Dear colleague, could you share the recorded outcome for COc1ccc(C(=O)N2CCC(N3C[C@H](O)C[C@H]3C(=O)NC3CCCCC3)CC2)cn1 when you have a moment?
f

Dear colleague, could you share the recorded outcome for O=C(NC1CCOC1)c1ccc2oc(-c3ccc(C(F)(F)F)cc3)nc2c1 (configuration not stated) when you have a moment?
f

Dear colleague, could you share the recorded outcome for COc1ccc(-c2cc(-c3cccc4[nH]ncc34)cn3cncc23)cn1 when you have a moment?
t

Dear colleague, could you share the recorded outcome for O=C1Nc2ccccc2CC12CCN2Cc1cncs1 (configuration not stated) when you have a moment?
f

Dear colleague, could you share the recorded outcome for Cc1nc(-c2cn(C3CCCN(C(=O)c4sccc4C)C3)nn2)no1 (configuration not stated) when you have a moment?
f

Dear colleague, could you share the recorded outcome for c1cc(-c2ccc3c(c2)OCCCO3)n2ncnc2n1 when you have a moment?
f

Dear colleague, could you share the recorded outcome for CN(C)C(=O)c1cccnc1OC1CCN(C(=O)c2ccc(Br)o2)C1 (configuration not stated) when you have a moment?
f

Dear colleague, could you share the recorded outcome for CN1CCNc2nc(CNc3cccc(F)c3)n(Cc3ccccc3)c2C1=O when you have a moment?
f

Dear colleague, could you share the recorded outcome for N[C@@H](Cc1cnc[nH]1)C(=O)N1CCC(c2cc(N3CCCC3)ncn2)CC1 when you have a moment?
f

Dear colleague, could you share the recorded outcome for O=C1Cc2c(-c3ccc(CO)cc3)n[nH]c2CN1CC1CCOCC1 when you have a moment?
t

Dear colleague, could you share the recorded outcome for CCn1cnnc1CC1CCN(C(=O)C2CCN(Cc3nc(-c4cccc(C)c4)oc3C)CC2)CC1 when you have a moment?
f

Dear colleague, could you share the recorded outcome for COCCCNC(=O)N1CCC(Cc2noc(-c3ccncc3)n2)C1 (configuration not stated) when you have a moment?
f

Dear colleague, could you share the recorded outcome for COc1ccc(C(=O)N2CCN(C(=O)Nc3cccc(OC)c3)C[C@@H]2C(=O)N[C@H]2CCCNC2=O)cc1 when you have a moment?
f

Dear colleague, could you share the recorded outcome for Cc1ccnc(N2CC[C@@H]3[C@@H](CCC(=O)N3CCc3ccccn3)C2)n1 when you have a moment?
f

Dear colleague, could you share the recorded outcome for CN(C)C[C@@H]1CN(S(C)(=O)=O)C[C@H]1NC(=O)c1cccc(F)c1 when you have a moment?
f

Dear colleague, could you share the recorded outcome for COc1ccccc1NC(=O)Cn1c(C)cc2nc3n(c(=O)c21)CCC3 when you have a moment?
f

Dear colleague, could you share the recorded outcome for COc1ccc(-c2cccc(C(=O)NCc3cccc(Cl)c3)c2)nn1 when you have a moment?
t

Dear colleague, could you share the recorded outcome for COc1ccc(C(=O)N2CCCN(C(=O)C3CC3)C(c3ccccc3)CC(=O)NCC2)cn1 (configuration not stated) when you have a moment?
f

Dear colleague, could you share the recorded outcome for COc1ccc(-c2nc(CN3CCOC(CN)C3)c(C)o2)c2ccccc12 (configuration not stated) when you have a moment?
t

Dear colleague, could you share the recorded outcome for CC(C)(C)n1nnnc1C1CC2(CCOCC2)C(=O)N1Cc1ccc(F)cc1 (configuration not stated) when you have a moment?
f

Dear colleague, could you share the recorded outcome for COc1ccc(-c2cc(-c3cnc4[nH]ccc4c3)cn3cncc23)cn1 when you have a moment?
t

Dear colleague, could you share the recorded outcome for COCc1cccc(-c2n[nH]c3c2CC(=O)N(c2ccccc2)C3)c1 when you have a moment?
f

Dear colleague, could you share the recorded outcome for CC(C)(C)c1ccc(C(=O)N2C[C@@H](CO)[C@H](c3ccccn3)C2)cc1 when you have a moment?
f

Dear colleague, could you share the recorded outcome for Cc1cc(C(=O)N2CCCC(Cc3noc(-c4cccnc4)n3)C2)nn1C (configuration not stated) when you have a moment?
f

Dear colleague, could you share the recorded outcome for CC(C)NC(=O)C(C)[C@@H]1CC[C@@]2(C)CC[C@H](N[S+](C)(=O)[O-])[C@@H](C)[C@@H]2[C@H]1O (some centres not stated) when you have a moment?
f

Dear colleague, could you share the recorded outcome for Cc1nn2c(c1-c1ccccc1-c1ccccc1)N(CC1CC1)CCC2 when you have a moment?
t

Dear colleague, could you share the recorded outcome for O=C(NCc1nc(-c2ncccn2)no1)[C@H]1CNC[C@@H](C(=O)N2CCCC2)C1 when you have a moment?
f

Dear colleague, could you share the recorded outcome for Cc1oc(-c2cc(F)ccc2F)nc1CN1CCN(c2ccccc2)CC1C (configuration not stated) when you have a moment?
f

Dear colleague, could you share the recorded outcome for Cn1cccc1C(=O)N1CCCC(c2nc(-c3ccccc3)no2)CCNC(=O)CC1 (configuration not stated) when you have a moment?
f

Dear colleague, could you share the recorded outcome for CCNC(=O)N[C@H]1[C@H](O)[C@@H](N(C)CCc2ccccn2)[C@@H]2OC[C@H]1O2 when you have a moment?
f

Dear colleague, could you share the recorded outcome for O=C(CSc1ccncc1)N1CCCC(O)(CN2CCCC2)C1 (configuration not stated) when you have a moment?
f

Dear colleague, could you share the recorded outcome for CCN1C(=O)CCN(C(=O)NCCCOC)CC12CCOCC2 when you have a moment?
f

Dear colleague, could you share the recorded outcome for Cc1oc(-c2cccs2)nc1CN1CCOC(Cc2ccccc2)C1 (configuration not stated) when you have a moment?
f

Dear colleague, could you share the recorded outcome for CC(NC(=O)c1ccc(CN2C(=O)NC3(CCOCC3)C2=O)cc1)c1ccccc1 (configuration not stated) when you have a moment?
f
